# System: RPMI-8226
# protocol.summary: Cytotoxicity against human RPMI8226 cells
# Assay type: functional
metric.name: GI50 (nM)
Answers are plain numbers, in nM.

Completed entries (count: 9):
COc1cc(/C=C/c2cc(OC)c3cc[nH]c3c2)cc2c1O[C@]1(C)CC[C@@H](O)C(C)(C)[C@H]1C2 : 28.2
COc1cc(/C=C/c2cc(O)c3c(c2)C[C@@H]2C(C)(C)[C@H](O)CC[C@@]2(C)O3)cc2[nH]cc(CC=C(C)C)c12 : 11.2
COc1cc(/C=C/c2cc(O)c3c(C/C=C(\C)CCC=C(C)C)c[nH]c3c2)cc2c1O[C@]1(C)CC[C@@H](O)C(C)(C)[C@H]1C2 : 158
COc1cc(/C=C/c2cc(O)c3ccn(C)c3c2)cc2c1O[C@]1(C)CC[C@@H](O)C(C)(C)[C@H]1C2 : 70.8
COc1cc(/C=C/c2cc(O)c3cc[nH]c3c2)cc2c1O[C@]1(C)CC[C@@H](O)C(C)(C)[C@H]1C2 : 316
COc1cc(/C=C/c2cc(OC)c3ccn(C)c3c2)cc2c1O[C@]1(C)CC[C@@H](O)C(C)(C)[C@H]1C2 : 170
COc1cc(/C=C/c2cc(OC)c3c(CC=C(C)C)c[nH]c3c2)cc2c1O[C@]1(C)CC[C@@H](O)C(C)(C)[C@H]1C2 : 77.6
COc1cc(/C=C/c2cc(OC)c3c(C/C=C(\C)CCC=C(C)C)c[nH]c3c2)cc2c1O[C@]1(C)CC[C@@H](O)C(C)(C)[C@H]1C2 : 126
COc1cc(/C=C/c2cc(O)c3cc(CC=C(C)C)[nH]c3c2)cc2c1O[C@]1(C)CC[C@@H](O)C(C)(C)[C@H]1C2 : 282

Next item in the queue.
Input CC1(C)[C@H](O)CC[C@@]2(C)Oc3c(O)cc(/C=C/c4cc(O)c5cc[nH]c5c4)cc3C[C@H]12 . Output GI50: 15.8

* * *

Assign TGI to each entry below.
# Tested on: RXF 393
# protocol.summary: Cytotoxicity against human RXF393 cells
# Format: functional
# assay.conditions: read-out: pTGI (converted)
Answers without a unit are incomplete; give the number and then its unit.

COc1cc(/C=C/c2cc(O)c3c(CC=C(C)C)c[nH]c3c2)cc2c1O[C@]1(C)CC[C@@H](O)C(C)(C)[C@H]1C2 : 0.457 µM
COc1cc(/C=C/c2cc(O)c3cc[nH]c3c2)cc2c1O[C@]1(C)CC[C@@H](O)C(C)(C)[C@H]1C2 : 0.316 µM
COc1cc(/C=C/c2cc(O)c3c(c2)C[C@@H]2C(C)(C)[C@H](O)CC[C@@]2(C)O3)cc2[nH]cc(CC=C(C)C)c12 : 0.0339 µM
COc1cc(/C=C/c2cc(OC)c3c(C/C=C(\C)CCC=C(C)C)c[nH]c3c2)cc2c1O[C@]1(C)CC[C@@H](O)C(C)(C)[C@H]1C2 : 0.251 µM
COc1cc(/C=C/c2cc(OC)c3cc[nH]c3c2)cc2c1O[C@]1(C)CC[C@@H](O)C(C)(C)[C@H]1C2 : 0.0603 µM

Please go through the list and note TGI for each molecule.
1. COc1cc(/C=C/c2cc(O)c3c(C/C=C(\C)CCC=C(C)C)c[nH]c3c2)cc2c1O[C@]1(C)CC[C@@H](O)C(C)(C)[C@H]1C2
2. COc1cc(/C=C/c2cc(OC)c3c(CC=C(C)C)c[nH]c3c2)cc2c1O[C@]1(C)CC[C@@H](O)C(C)(C)[C@H]1C2
3. COc1cc(/C=C/c2cc(OC)c3ccn(C)c3c2)cc2c1O[C@]1(C)CC[C@@H](O)C(C)(C)[C@H]1C2

A.
0.309 µM
0.105 µM
0.275 µM

Where do these numbers come from? They come from ChEMBL document CHEMBL3232844.
